Each item that follows carries a reported melting point.

Completed entries (count: 2):
compound: Cc1n[nH]cc1C=C1C(=O)NN=C1C1CC1 [Example 363]
recordedValue: 265 to 267 °C
--
compound: CCOC1=NNC(=O)C1=Cc1cn(C)c2ccccc12 [Example 301]
recordedValue: 194 to 196 °C

Attention now turns to another entry.
Which melting point value belongs to Cc1cc(C)c(C=C2C(=O)NN=C2CCc2ccccc2)[nH]1 [Example 28] ?
186 to 187 °C

* * *

Each item that follows carries a reported melting point.

Completed entries (count: 6):
structureSmilesString: CCc1c(C)[nH]c(C=C2C(=O)NN=C2OC(C)C)c1C
valueType: melting point
recordedValue: 188 to 190 °C

structureSmilesString: O=C1NN=C(C2CC2)C1=Cc1cccn1-c1cc(Cl)cc(Cl)c1
valueType: melting point
recordedValue: 188 to 190 °C

structureSmilesString: Cc1cccc2c(C=C3C(=O)NN=C3C3CC3)c[nH]c12
valueType: melting point
recordedValue: 286 to 288 °C

structureSmilesString: O=C1NN=C(C2CC2)C1=Cc1cccs1
valueType: melting point
recordedValue: 275 to 277 °C

structureSmilesString: Cc1[nH]c(C=C2C(=O)NN=C2c2cnccn2)c(C)c1C(=O)CCCl
valueType: melting point
recordedValue: 213 °C (dec.)

structureSmilesString: O=C1NN=C(COc2ccc(-c3ccccc3)cc2)C1=Cc1c[nH]c2ccccc12
valueType: melting point
recordedValue: 295 to 296 °C

Which melting point value belongs to `O=C1NN=C(c2ccc[nH]2)C1=Cc1c[nH]c2ccccc12` ?
300 to 302 °C

Another molecule to check: `CC(C)OC1=NNC(=O)C1=Cc1cn(CCCCO)c2ccccc12`
210 to 212 °C

Another molecule to check: `Cc1ccc(C=C2C(=O)NN=C2OC(C)C)[nH]1`
128 to 130 °C

Another molecule to check: `O=C1NN=C(COc2ccc(Cl)cc2)C1=Cc1c[nH]c2ccccc12`
264 to 267 °C

Another molecule to check: `CC(C)OC1=NNC(=O)C1=Cc1ccc(N(C)C)cc1`
197 to 198 °C

Another molecule to check: `COc1ccc(OCC2=NNC(=O)C2=Cc2c[nH]c3ncccc23)cc1`
300 to 302 °C

Another molecule to check: `O=C1NN=C(CCc2ccc(O)cc2)C1=Cc1ccc[nH]1`
253 to 255 °C

Another molecule to check: `CCOC1=NNC(=O)C1=Cc1ccc([N+](=O)[O-])[nH]1`
208 to 210 °C

* * *

valueType: melting point

structureSmilesString: CC(C)OC1=NNC(=O)C1=Cc1cn(C)c2cc(C(=O)O)ccc12
recordedValue: 330 to 332 °C
--
structureSmilesString: O=C1NN=C(c2ccccc2)C1=Cc1c[nH]c2ncccc12
recordedValue: 280 to 282 °C
--
structureSmilesString: O=C1NN=C(CCc2ccccc2)C1=Cc1cn(CCCCO)c2ccccc12
recordedValue: 205 to 207 °C

Which melting point value belongs to `O=C(CC1=NNC(=O)C1=Cc1c[nH]c2ccccc12)Nc1ccc(Cl)cc1` ?
305 to 307 °C

Another compound to check: `O=C1NN=C(C2CC2)C1=Cc1cc2cc([N+](=O)[O-])ccc2[nH]1`
316 to 320 °C

Another compound to check: `O=C1NN=C(C2CCC2)C1=Cc1cn(CCCCO)c2ccccc12`
220 to 222 °C
